TARGET ENTITY: T1, SPSB2 SPRY domain (residues 12–224) (mouse, UniProt O88838 12-224)
T1 sequence (looked up): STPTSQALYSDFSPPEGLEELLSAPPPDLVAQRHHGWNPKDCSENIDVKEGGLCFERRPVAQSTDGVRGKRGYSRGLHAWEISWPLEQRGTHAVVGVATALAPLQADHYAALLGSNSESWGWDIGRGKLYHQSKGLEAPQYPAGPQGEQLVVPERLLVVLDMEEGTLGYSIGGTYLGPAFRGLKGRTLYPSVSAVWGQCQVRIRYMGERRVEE
EXPERIMENT: ITC
PROPERTY MEASURED: log10 of Kd (log10 of the value in nM)
Units before log transform: nM; reported quantity: Kd; transform: log10.

- BINDER: "Ac-KEEKDANNNVKKT-NH2 [iNOS N-terminal peptide F (Ac-KEEKDANNNVKKT-NH2)]"
  PROPERTY MEASURED: "log10 of Kd"
  REPORTED MEASUREMENT: 1.37

Task: Give its log10 of Kd value. Item: Ac-KEEKAINNNVKKT-NH2 [iNOS N-terminal peptide E (Ac-KEEKAINNNVKKT-NH2)]
Result: 4.33

Task: Give its log10 of Kd value. Item: Ac-KEEADINNNAKAT-NH2 [iNOS N-terminal peptide O (Ac-KEEADINNNAKAT-NH2)]
Result: 2.49

Task: Give its log10 of Kd value. Item: Ac-KEEKDIQNNVKKT-NH2 [iNOS N-terminal peptide H (Ac-KEEKDIQNNVKKT-NH2)]
Result: 4.61

Task: Give its log10 of Kd value. Item: Ac-KEEADINNNVKKT-NH2 [iNOS N-terminal peptide C (Ac-KEEADINNNVKKT-NH2)]
Result: 2.10

Task: Give its log10 of Kd value. Item: Ac-KEEKDIANNVKKT-NH2 [iNOS N-terminal peptide G (Ac-KEEKDIANNVKKT-NH2)]
Result: 4.24

Task: Give its log10 of Kd value. Item: Ac-KEEKDINNNAKKT-NH2 [iNOS N-terminal peptide L (Ac-KEEKDINNNAKKT-NH2)]
Result: 1.75

Task: Give its log10 of Kd value. Item: Ac-KEAADINNNVKKT-NH2 [iNOS N-terminal peptide D (Ac-KEAADINNNVKKT-NH2)]
Result: 1.82

Task: Give its log10 of Kd value. Item: Ac-KEEKDINNNVKKT-NH2 [iNOS N-terminal peptide, wild type (Ac-KEEKDINNNVKKT-NH2)]
Result: 1.12

Task: Give its log10 of Kd value. Item: Ac-KEAKDINNNVKKT-NH2 [iNOS N-terminal peptide B (Ac-KEAKDINNNVKKT-NH2)]
Result: 1.15

Task: Give its log10 of Kd value. Item: Ac-KEEKDINANVKKT-NH2 [iNOS N-terminal peptide I (Ac-KEEKDINANVKKT-NH2)]
Result: 2.92

Task: Give its log10 of Kd value. Item: Ac-KEEKDINNNAKAT-NH2 [iNOS N-terminal peptide N (Ac-KEEKDINNNAKAT-NH2)]
Result: 2.26

Task: Give its log10 of Kd value. Item: Ac-KEEKDINNNVKAT-NH2 [iNOS N-terminal peptide M (Ac-KEEKDINNNVKAT-NH2)]
Result: 1.47
